Each record here notes measured cell viability.
System: NOMO1
method_notes: cell viability relative to DMSO control; higher = less cytotoxic
conditions_used: RPMI 5 mM glucose + 10% dialyzed FBS; 48 h; 1.71 µM

{"columns": ["molecule", "cell viability / %"],
 "data": [
  ["CCCCCCCCCCCCCCCCCCCCCCO", 140],
  ["CC1(C)CCC[C@]2(C)[C@H]3CC(=O)O[C@]3(C)CC[C@@H]12", 105],
  ["O=C([O-])C(O)Cc1ccc(O)c(O)c1 (stereo not given)", 84.4],
  ["CC(C)n1nc(-c2cc3cc(O)ccc3[nH]2)c2c(N)ncnc21", 78],
  ["CNC1CCC(N(Cc2cccc(-c3ccncc3)c2)C(=O)c2sc3ccccc3c2Cl)CC1 (stereo not given)", 102],
  ["CCC[C@H](NC(=O)/C(C#N)=C/c1cccc(Br)n1)c1ccccc1", 116],
  ["CC1=C(/C=C/C(C)=C/C=C/C(C)=C/C=C/C=C(C)/C=C/C=C(C)/C=C/C2=C(C)CCCC2(C)C)C(C)(C)CCC1", 117],
  ["OC1=CC=C(C=C1)\\C2=C\\OC3=C(C=CC(=C3)O)C2=O", 96.6],
  ["CC(=O)Nc1ccc(OC[C@](C)(O)C(=O)Nc2ccc([N+](=O)[O-])c(C(F)(F)F)c2)cc1", 85.6],
  ["C#Cc1cccc(Nc2ncnc3cc(OCCOC)c(OCCOC)cc23)c1", 89]
]}

// provenance: the supplement of paper PMC11451515
